Values from patent US8758988B2

# experimental-details: Arrhenius fit of CPA diffusion coefficients (constants and activation energies)
# Type: physicochemical
# test-conditions: Table (1); Arrhenius fit of diffusion coefficients; R = 0.001986 Kcal/(mol. K)
Entries and their Dcwo (Arrhenius constant) values follow.

Solved cases (4 shown):
# compound, result
measured = [
    ("C[S+](C)[O-] [D (DMSO), dimethyl sulfoxide]", "298.95 ×10^−9 m^2/s"),
    ("NC=O [F (Form), formamide]", "1903.510 ×10^−9 m^2/s"),
    ("OCCO [E (EG), ethylene glycol]", "183.30 ×10^−9 m^2/s"),
    ("OCC(O)CO [G (Gly), glycerol]", "208.03 ×10^−9 m^2/s"),
]

For the next question, use this compound.
Query: Query (compound): CC(O)CO (centres unmarked) [P (PG), propylene glycol] ; field requested: Dcwo (Arrhenius constant)
Response: 16971.0 ×10^−9 m^2/s

---

Entries and their Ea (activation energy) values follow.
# experimental-details: Arrhenius fit of CPA diffusion coefficients (constants and activation energies)
# Assay type: physicochemical
# test-conditions: Table (1); Arrhenius fit of diffusion coefficients
Record the result as number plus unit.

Solved cases (4 shown):
# molecule, Ea (activation energy)
data = [
    ("C[S+](C)[O-] [D (DMSO), dimethyl sulfoxide]", "3.9 kcal/mol"),
    ("NC=O [F (Form), formamide]", "4.198 kcal/mol"),
    ("OCC(O)CO", "5.6 kcal/mol"),
    ("CC(O)CO (centres unmarked)", "6.63 kcal/mol"),
]

For the next question, use this molecule.
Query: Query (molecule): OCCO [E (EG), ethylene glycol] ; field requested: Ea (activation energy)
Response: 3.8 kcal/mol
